Cited source for all entries: ChEMBL document CHEMBL1961873

Overview of recorded inhibition for various compounds
biological target: Ribosomal protein S6 kinase alpha-6 (Homo sapiens); conditions: at 1 µM;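 note: each value is a mean inhibition of RSK4 from a GSK PKIS panel screen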
Assay metric: inhibition (%)

{"Smiles record": "Cc1ccc2c(-c3ccnc(Nc4ccccc4)n3)c(-c3ccc(F)cc3)nn2n1", "Observed value": 4.74}
{"Smiles record": "CCn1c(-c2nonc2N)nc2cnc(Oc3cccc(NC(=O)c4ccc(N(C)C)cc4)c3)cc21", "Observed value": 15.2}
{"Smiles record": "Cc1cccc(Nc2ncc(-c3ccccc3)o2)c1", "Observed value": 2.13}
{"Smiles record": "Nc1nc(-c2cccc(Cl)c2)c(-c2ccc3ncccc3n2)s1", "Observed value": 2.73}
{"Smiles record": "COC(=O)Nc1nc2ccc(Oc3ccc(NC(=O)Nc4cccc(Cl)c4)cc3)cc2[nH]1", "Observed value": -1.02}
{"Smiles record": "COc1cc(/C=N/Nc2ncnc3[nH]ncc23)ccc1O", "Observed value": 13.3}
{"Smiles record": "COC(=O)c1sc(-n2cnc3cc(OC)c(OC)cc32)cc1OCc1ccccc1C(F)(F)F", "Observed value": 1.66}
{"Smiles record": "c1cc(-c2cnn3nc(N4CCOCC4)ccc23)nc(NC2CC2)n1", "Observed value": 10.5}
{"Smiles record": "FC(F)(F)c1cccc(-c2nn3ncccc3c2-c2ccnc(Nc3ccc4c(c3)OCCO4)n2)c1", "Observed value": 2.56}
{"Smiles record": "CCn1c(-c2nonc2N)nc2c(C#CC(C)(C)O)nc(OC[C@H](N)c3ccccc3)cc21", "Observed value": 7.07}
{"Smiles record": "Clc1ccc(-c2nn3ncccc3c2-c2ccnc(Nc3ccccc3)n2)cc1", "Observed value": 1.59}
{"Smiles record": "Fc1ccc(-c2nn3ccccc3c2-c2ccncc2)cc1", "Observed value": 2.09}
{"Smiles record": "Nc1nc(-c2ccc(F)cc2)c(-c2ccc3ncccc3n2)s1", "Observed value": 3.36}
{"Smiles record": "CCN(CC)S(=O)(=O)c1ccc(OC)c(Nc2ncc(-c3ccccc3)o2)c1", "Observed value": 2.89}
{"Smiles record": "CN1CCC(n2cnc(-c3ccc(F)cc3)c2-c2ccnc(Nc3ccccc3)n2)CC1", "Observed value": 2.69}
{"Smiles record": "COc1ccc2[nH]c3c4[nH]c5ccc(OC)cc5c4c4c(c3c2c1)C(=O)NC4=O", "Observed value": 88}
{"Smiles record": "COc1ccc(-c2cc3c(N)ncnc3o2)cc1", "Observed value": 1.58}
{"Smiles record": "CCN1CCC(CC(=O)Nc2n[nH]c3nnc(-c4cccc(F)c4F)cc23)CC1", "Observed value": 1.38}
{"Smiles record": "N#Cc1c(NC(=O)c2ccc(F)cc2)sc2c1CCCC2", "Observed value": 0.81}
{"Smiles record": "CN1CCC(n2cnc(-c3ccc(F)cc3)c2-c2ccnc(N)n2)CC1", "Observed value": 3.17}
{"Smiles record": "Fc1ccc(-c2cc(-c3c[nH]nc3-c3ccccn3)ccn2)cc1", "Observed value": 0.89}
{"Smiles record": "NS(=O)(=O)c1ccc(N/N=C2\\C(=O)Nc3ccc4ncccc4c32)cc1", "Observed value": 55.5}
